Test: Toxicity towards CEM cells determined by standard MTT assay, expressed as concentration required for the survival of 50% cells
Assay type: cell-based
Conditions: human, CEM cells (CCRF-CEM cell line); read-out: TC50 (the source's name)
quantity: CC50 (µM)
I only need the number, in µM, no unit after it.

{"columns": ["structure", "scale.unit", "CC50"],
 "data": [
  ["O=C(c1ccc(F)c(F)c1)c1ccc2ccc(/C=C/c3ccc(O)c(O)c3)nc2c1O", "µM", 63],
  ["O=C(c1ccccc1O)c1ccc2ccc(/C=C/c3ccc(O)c(O)c3)nc2c1O", "µM", 1],
  ["O=C(c1ccc([N+](=O)[O-])cc1)c1ccc2ccc(/C=C/c3ccc(O)c(O)c3)nc2c1O", "µM", 60],
  ["O=C(c1ccccn1)c1ccc2ccc(/C=C/c3ccc(O)c(O)c3)nc2c1O", "µM", 15]
]}

Could you share which CC50 value was measured for O=C(c1ccncc1)c1ccc2ccc(/C=C/c3ccc(O)c(O)c3)nc2c1O ?
4

Same question, CCCCCCCCC(=O)c1ccc2ccc(/C=C/c3ccc(O)c(O)c3)nc2c1O this time
10

---

Experiment: Toxicity towards CEM cells determined by standard MTT assay, expressed as concentration required for the survival of 50% cells
Format: cell-based
Settings: human, CEM cells (CCRF-CEM cell line); read-out: TC50 (the source's name)
quantity: CC50 (µM)
Output spec: scalar in µM, unitless text.

Observe how each entry below is paired with its result.
{"columns": ["structure", "scale.unit", "CC50"],
 "data": [
  ["O=C(c1ccc2ccc(/C=C/c3ccc(O)c(O)c3)nc2c1O)c1cccc2ccccc12", "µM", 1],
  ["O=C(c1ccccc1)c1ccc2ccc(/C=C/c3ccc(O)c(O)c3)nc2c1O", "µM", 3],
  ["O=C(c1ccccc1[N+](=O)[O-])c1ccc2ccc(/C=C/c3ccc(O)c(O)c3)nc2c1O", "µM", 70],
  ["O=C(c1ccc(O)cc1)c1ccc2ccc(/C=C/c3ccc(O)c(O)c3)nc2c1O", "µM", 87],
  ["O=C(c1cccc([N+](=O)[O-])c1)c1ccc2ccc(/C=C/c3ccc(O)c(O)c3)nc2c1O", "µM", 1.5],
  ["O=C(CCc1ccccc1)c1ccc2ccc(/C=C/c3ccc(O)c(O)c3)nc2c1O", "µM", 7]
]}

Any idea what CC50 was measured for Cc1cc(C(=O)c2ccc3ccc(/C=C/c4ccc(O)c(O)c4)nc3c2O)ccc1[N+](=O)[O-] ?
90

And the next one, O=C(O)c1ccc(C(=O)c2ccc3ccc(/C=C/c4ccc(O)c(O)c4)nc3c2O)cc1 ?
80

---

Test: Toxicity towards CEM cells determined by standard MTT assay, expressed as concentration required for the survival of 50% cells
Type: cell-based
Settings: human, CEM cells (CCRF-CEM cell line); read-out: TC50 (the source's name)
As shown below, each of these compounds has a reported CC50 value.

The cases that follow already have their CC50 on record.
{"columns": ["structure", "assay.result"],
 "data": [
  ["O=C(c1cccnc1)c1ccc2ccc(/C=C/c3ccc(O)c(O)c3)nc2c1O", "> 100 µM"],
  ["O=C(O)c1ccccc1C(=O)c1ccc2ccc(/C=C/c3ccc(O)c(O)c3)nc2c1O", "> 100 µM"]
]}

Quick one: CC50 for O=C(O)c1cccc(C(=O)c2ccc3ccc(/C=C/c4ccc(O)c(O)c4)nc3c2O)c1 ?
> 100 µM
